Data origin, for the record: patent US20200079833A1

# measured.on: T1, GLP-1R in the INS1e assay (UniProt P32301 22-463, limits assumed)
# T1 sequence (looked up): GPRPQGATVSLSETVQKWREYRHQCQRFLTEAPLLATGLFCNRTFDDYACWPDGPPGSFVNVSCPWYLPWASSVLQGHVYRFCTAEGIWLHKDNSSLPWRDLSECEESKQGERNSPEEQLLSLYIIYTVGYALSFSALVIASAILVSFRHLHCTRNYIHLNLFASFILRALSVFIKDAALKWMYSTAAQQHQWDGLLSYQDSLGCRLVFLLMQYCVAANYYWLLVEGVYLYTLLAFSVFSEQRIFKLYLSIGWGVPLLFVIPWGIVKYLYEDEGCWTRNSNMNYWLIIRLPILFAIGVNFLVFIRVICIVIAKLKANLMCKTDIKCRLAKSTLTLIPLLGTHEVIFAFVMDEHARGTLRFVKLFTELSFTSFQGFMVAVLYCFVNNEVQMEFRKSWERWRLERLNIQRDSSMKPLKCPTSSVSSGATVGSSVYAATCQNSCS
# protocol.text: cell-based or functional assay
Starred links: 1 amine or outer side, 2 acyl side, 3 side chain; linkers in the order of their positions; H or OH if unused. Non-standard residues stand in square brackets, D forms with d. Groups on a side chain read outwards from the residue. Primed or numbered codes have the meaning given here. No end group written: not given here. *: point of attachment. γGlu = O=C(O)[C@H](CCC(=O)[*:2])N[*:1]; Stearoyl = CCCCCCCCCCCCCCCCCC(=O)*; Palmitoyl = CCCCCCCCCCCCCCCC(=O)*; αMeF = C[C@](N)(Cc1ccccc1)C(=O)O; αMeK = C[C@](N)(CCCCN)C(=O)O; Lauroyl = CCCCCCCCCCCC(=O)*; αMeS = C[C@](N)(CO)C(=O)O; Nle = CCCC[C@H](N)C(=O)O; PEG2′ = not defined here; Aib = CC(C)(N)C(=O)O
measurement.kind: INS1e assay EC50 (cAMP) Mean (nM)
Report as a plain number; the unit nM is understood.

INSERT INTO results (binder, measurement_kind, test_value) VALUES
  ('H[Aib]EGS[αMeF]TSDV[αMeS]SK([PEG2′-PEG2′-γGlu-Lauroyl])LEGEAA[αMeK]E[Nle]IAK([PEG2′-PEG2′-γGlu-Lauroyl])VVEGG-NH2 [SEQ ID NO: 407]', 'INS1e assay EC50 (cAMP) Mean', 0.104),
  ('H[Aib]EGS[αMeF]TSDV[αMeS]SK([PEG2′-PEG2′-γGlu-Stearoyl])LEGEAA[αMeK]E[αMeF]IAK([PEG2′-PEG2′-γGlu-Stearoyl])VVEGG-NH2 [SEQ ID NO: 410]', 'INS1e assay EC50 (cAMP) Mean', 0.78),
  ('H[Aib]EGS[αMeF]TSDVSK([PEG2′-PEG2′-γGlu-Palmitoyl])YLEGEAAEEFIK([PEG2′-PEG2′-γGlu-Palmitoyl])WVVEGG-NH2 [SEQ ID NO: 246]', 'INS1e assay EC50 (cAMP) Mean', 71.3);

Prompt: Record request: INS1e assay EC50 (cAMP) Mean value, item H[Aib]EGS[αMeF]TSDVSK([PEG2′-PEG2′-γGlu-Palmitoyl])FLEGEAA[αMeK]EFIK([PEG2′-PEG2′-γGlu-Palmitoyl])FVVEGG-NH2 [SEQ ID NO: 250]
Response: 38.1
